Cited source for all entries: PubChem BioAssay

experiment: inhibitors of TNFa-induced NFkB p65 translocation, primary screen, imaging, HUVEC, MLSMR starter and 10KST1 sets (AID 438); conditions: HUVEC TNFa-induced p65 nuclear translocation; at 2 µM, active compounds read high, 0% TNFa-plus-vehicle, 100% no-TNFa wells;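 note: compound added about 3h40 before a 20 min TNFalpha stimulation; signal is the nuclear over cytoplasmic p65 intensity ratio per well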
inhibition listing for selected compounds.
TEST READOUT: inhibition (%)

[[record]]
compound = "Cc1cc(C2C(C#N)=C(N)SC(N)=C2C#N)c(C)s1"
units_text = "%"
endpoint_result = -5

[[record]]
compound = "CC1=C(C(N)=O)C(c2ccc(Cl)cc2Cl)n2ncnc2N1 (stereo not drawn)"
units_text = "%"
endpoint_result = -2.5

[[record]]
compound = "O=C(CSc1nnc(Cn2cnc3ccccc32)o1)c1ccccc1"
units_text = "%"
endpoint_result = 3


* * *

experiment: inhibitors of TNFa-induced NFkB p65 translocation, primary screen, imaging, HUVEC, MLSMR starter and 10KST1 sets (AID 438); conditions: HUVEC TNFa-induced p65 nuclear translocation; at 2 µM, active compounds read high, 0% TNFa-plus-vehicle, 100% no-TNFa wells;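 note: compound added about 3h40 before a 20 min TNFalpha stimulation; signal is the nuclear over cytoplasmic p65 intensity ratio per well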
TEST READOUT: inhibition (%)

[[record]]
molecule_smiles = "Cc1cc(NC(=O)CSc2nc3ccsc3c(=O)n2NC(=O)c2ccccc2)no1"
units_text = "%"
endpoint_result = -1.2

[[record]]
molecule_smiles = "O=C(O)c1[nH]nc2c1COc1ccccc1-2"
units_text = "%"
endpoint_result = 13.1

[[record]]
molecule_smiles = "COc1ccc(OC)c(NC(=O)Cc2coc3ccc(C)cc23)c1"
units_text = "%"
endpoint_result = 3.5

[[record]]
molecule_smiles = "COc1ccc(-n2c(SCCC(=O)O)nnc2-c2ccncc2)cc1"
units_text = "%"
endpoint_result = -6.2

[[record]]
molecule_smiles = "COCn1c(COc2ccccc2)nc2ccccc21"
units_text = "%"
endpoint_result = 9.6

[[record]]
molecule_smiles = "Cc1ccc(SCCC(=O)N(C)C)cc1"
units_text = "%"
endpoint_result = -8.6

[[record]]
molecule_smiles = "O=C(CNC(=O)c1cccs1)NCCN1CCN(c2ccccc2F)CC1"
units_text = "%"
endpoint_result = -8.2


* * *

assay: inhibitors of TNFa-induced NFkB p65 translocation, primary screen, imaging, HUVEC, MLSMR starter and 10KST1 sets (AID 438); conditions: HUVEC TNFa-induced p65 nuclear translocation; at 2 µM, active compounds read high, 0% TNFa-plus-vehicle, 100% no-TNFa wells;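 note: compound added about 3h40 before a 20 min TNFalpha stimulation; signal is the nuclear over cytoplasmic p65 intensity ratio per well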
TEST READOUT: inhibition (%)

[[record]]
compound = "Cc1nnc(C)c2c(C)n(-c3ccc(Br)cc3)c(C)c12"
endpoint_result = 2.5

[[record]]
compound = "CCn1c(=O)cc(SCC(=O)Nc2ccc3c(c2)OCO3)c2ccccc21"
endpoint_result = 3.1

[[record]]
compound = "O=C(NCc1n[nH]c(=S)n1-c1ccc(F)cc1)c1ccco1"
endpoint_result = -16.8

[[record]]
compound = "O=C1C2CCCN2C(c2ccc(Cl)cc2)N1c1nccs1 (centres undefined)"
endpoint_result = -7.5

[[record]]
compound = "NC(=O)c1c(NC(=O)CSc2nnc(-c3ccco3)n2-c2ccccc2)sc2c1CCC2"
endpoint_result = -15.4

[[record]]
compound = "CCOC(=O)c1[nH]c2ccccc2c1NC(=O)c1ccco1"
endpoint_result = -8.6

[[record]]
compound = "CCOc1ccc2[nH]c(=O)c(CN(Cc3ccccc3)C(=O)N3CCCC3)cc2c1"
endpoint_result = -14.1

[[record]]
compound = "CCCc1[nH]nc2c1C(c1cccc(OC(=O)c3ccco3)c1)C(C#N)=C(N)O2 (centres undefined)"
endpoint_result = -27.1

[[record]]
compound = "FC(F)(F)COc1nc(N2CCCCC2)nc(N2CCNCC2)n1"
endpoint_result = -7.9

[[record]]
compound = "CCn1nnnc1NCc1cccn1C"
endpoint_result = 11

[[record]]
compound = "Cc1ccc(S(=O)(=O)n2nc(OC(=O)c3ccco3)cc2N)cc1"
endpoint_result = -8.3

[[record]]
compound = "COc1cc(NC(=O)Cc2nn(C)c(=O)c3ccccc23)cc(OC)c1"
endpoint_result = -14.8

[[record]]
compound = "Cc1ccc(C)c(Cn2c(=O)n(CCC(=O)NCc3ccco3)c(=O)c3sccc32)c1"
endpoint_result = -4.5

[[record]]
compound = "CCOC(=O)N1CCC(NC(=O)C2CCCN2C(=O)OCc2ccccc2)CC1 (centres undefined)"
endpoint_result = -0.5

[[record]]
compound = "CC(C)C1N=C2c3ccccc3N=C(SCC(=O)NCCc3ccc(S(N)(=O)=O)cc3)N2C1=O (centres undefined)"
endpoint_result = -3.4

[[record]]
compound = "COc1ccc(CNC(=O)c2cc(-c3ccc(OC)c(OC)c3)on2)cc1"
endpoint_result = -7.2

[[record]]
compound = "Cc1cccc(N(C)C(=O)c2cc3cc4ccc(C)cc4nc3o2)c1"
endpoint_result = -0.3

[[record]]
compound = "CCOC(=O)c1nnn(-c2nonc2NC(C)=O)c1C"
endpoint_result = 6.5

[[record]]
compound = "CC(=O)C1=C(O)C(=O)N(Cc2ccco2)C1c1ccc2c(c1)OCO2 (centres undefined)"
endpoint_result = 10.9

[[record]]
compound = "O=C(NCc1cccnc1)c1ccccc1Br"
endpoint_result = -0.5

[[record]]
compound = "COc1cc2nc(C3CCC3)n(NC(=O)C3CCCC(OC)C3)c(=O)c2cc1OC (centres undefined)"
endpoint_result = -8.8

[[record]]
compound = "CC(=O)c1cccc(NC(=O)N2CCCC2C(=O)NCc2ccc(C)cc2)c1 (centres undefined)"
endpoint_result = -4.9

[[record]]
compound = "Cc1nnc(NC2CCCCC2)[nH]c1=O"
endpoint_result = 5.3

[[record]]
compound = "CCCC(C)C(=O)Nc1ccc(C(N)=O)cc1 (centres undefined)"
endpoint_result = 0.5

[[record]]
compound = "O=C(Nc1cccc(F)c1)N1CC=C(n2c(=O)[nH]c3ccccc32)CC1"
endpoint_result = 5.7

[[record]]
compound = "O=C(c1ccc(Cl)cc1)C1CCN(C(=O)NC2CCCCC2)CC1"
endpoint_result = -15

[[record]]
compound = "COCCn1nnnc1C(c1cc2cc(C)cc(C)c2[nH]c1=O)N1CCN(c2ccccc2F)CC1 (centres undefined)"
endpoint_result = 10.1

[[record]]
compound = "CCOc1ccc2c(c1)sc1nc(C(=O)OC)cc(=O)n12"
endpoint_result = 7.5

[[record]]
compound = "C=C(C)CSc1nnc(-c2cccc(S(=O)(=O)N(C)C)c2)n1-c1cc(OC)ccc1OC"
endpoint_result = -12.2

[[record]]
compound = "COc1ccc(C(C(C(=O)c2cccs2)N2CCOCC2)N2CCOCC2)cc1OC (centres undefined)"
endpoint_result = 3.6

[[record]]
compound = "Cc1nc2ccccn2c1/C(O)=C1\\C(=O)C(=O)N(CCN2CCOCC2)C1c1cccs1 (centres undefined)"
endpoint_result = 0.2

[[record]]
compound = "COc1ccccc1NC(=O)C1=C(C)Nc2ncnn2C1c1ccc(C)o1 (centres undefined)"
endpoint_result = 14.6

[[record]]
compound = "COc1ccc(CCn2c(N)c(C#N)c3nc4ccccc4nc32)cc1OC"
endpoint_result = -2.3

[[record]]
compound = "CNC(=O)CC(C(=O)O)c1ccc(OCC(C)C)cc1 (centres undefined)"
endpoint_result = -1.5

[[record]]
compound = "COc1cc(C2C3=C(CC(C)(C)CC3=O)Nc3c2c(=O)[nH]c(=O)n3Cc2ccccc2)ccc1O (centres undefined)"
endpoint_result = 15

[[record]]
compound = "Cc1cc(NC(=O)c2ccccc2Oc2ccccc2)no1"
endpoint_result = -0.2

[[record]]
compound = "O=C(CCN1CCOCC1)Nc1ccc2c(c1)CCC2"
endpoint_result = 5.7

[[record]]
compound = "CCOc1ccccc1CN1C(=O)c2ccccc2C1C(=O)NCC1CCCO1 (centres undefined)"
endpoint_result = 7.9

[[record]]
compound = "CCOC(=O)Nc1cc(OCC)c(NC(=O)C2CC2)cc1OCC"
endpoint_result = -12.9

